# System: paclitaxel induced peripheral neuropathy
# method-summary: Reversal of allodynia induced by paclitaxel in mice (s.c. or p.o., von Frey frequency method)
# Format: in vivo, c57bl/6 mice
# condition-description: Mus musculus, po, 1 h, 3 mg/kg p.o., tested 60 min after dosing, read-out: Screen @ 3 mg/kg po (% MPE)
measurement-label: inhibition in vivo at 3 mg/kg

[[record]]
compound = "N#Cc1cc(-c2nc(-c3ccc4oc(=O)[nH]c4c3)no2)ccc1NCC1CC1"
measured_value = "> 50%"

[[record]]
compound = "Cc1nc2cc(-c3nnc(-c4ccc(NC(C)C)c(C#N)c4)o3)ccc2[nH]1"
measured_value = "> 50%"

[[record]]
compound = "CCC1(CC)CC(=O)c2cc(-c3nc(-c4cncc(N)c4)no3)ccc2O1"
measured_value = "> 50%"

[[record]]
compound = "CCC1(CC)CC(=O)c2cc(-c3nc(-c4ccc(C(N)=O)cc4)no3)ccc2O1"
measured_value = "> 50%"


# input Endpoint output: inhibition in vivo at 3 mg/kg of `CCC1(CC)CC(=O)c2cc(-c3nc(-c4ccc(NS(C)(=O)=O)cc4OC)no3)ccc2O1` . Value?
# output < 50%

# input For `CC(C)Nc1ccc(-c2nnc(-c3ccc4oc(=O)[nH]c4c3)o2)cc1C#N` then?
# output > 50%

# input Lookup CC(C)n1nnc2cc(-c3noc(-c4cccc5c4CCC5O)n3)ccc21 (centres unmarked)
# output < 50%

# input Item: `CCC1(CC)CC(=O)c2cc(-c3nc(-c4cccnc4C)no3)ccc2O1`
# output > 50%

* * *

# system: human sphingosine-1-phosphate receptor 1 (S1P1) (Homo sapiens (Human))
# method-summary: β-Arrestin2 recruitment assay (PathHunter), S1P1 CHO-K1 cells
# Assay type: cell-based
# condition-description: CHO-K1; efficacy (SPAN) normalized to fingolimod; read-out: hS1P1 B-arrestin2 SPAN
# Sequence (P21453 whole entry, looked up): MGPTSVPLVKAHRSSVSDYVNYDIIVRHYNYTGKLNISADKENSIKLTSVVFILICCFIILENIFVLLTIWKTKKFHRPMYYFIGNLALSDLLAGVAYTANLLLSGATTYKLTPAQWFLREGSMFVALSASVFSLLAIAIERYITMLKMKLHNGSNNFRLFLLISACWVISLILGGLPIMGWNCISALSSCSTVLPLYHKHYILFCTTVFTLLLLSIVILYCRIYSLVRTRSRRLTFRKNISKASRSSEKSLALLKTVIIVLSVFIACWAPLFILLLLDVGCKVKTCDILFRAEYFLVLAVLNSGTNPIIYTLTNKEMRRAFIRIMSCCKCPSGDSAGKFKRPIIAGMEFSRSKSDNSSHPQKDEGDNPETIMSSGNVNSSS
# Sequence (P32121 whole entry partner, looked up): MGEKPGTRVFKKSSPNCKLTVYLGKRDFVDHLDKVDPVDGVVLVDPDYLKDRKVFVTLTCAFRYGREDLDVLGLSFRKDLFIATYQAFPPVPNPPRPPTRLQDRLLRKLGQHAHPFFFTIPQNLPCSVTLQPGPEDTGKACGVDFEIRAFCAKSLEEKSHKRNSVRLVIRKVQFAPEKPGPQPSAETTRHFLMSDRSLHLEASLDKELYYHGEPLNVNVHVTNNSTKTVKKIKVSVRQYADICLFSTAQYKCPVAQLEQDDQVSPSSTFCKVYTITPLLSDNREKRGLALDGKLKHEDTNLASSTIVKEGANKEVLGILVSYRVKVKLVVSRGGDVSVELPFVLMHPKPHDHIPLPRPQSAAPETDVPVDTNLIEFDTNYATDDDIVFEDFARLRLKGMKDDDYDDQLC
measurement-label: Emax

[[record]]
compound = "CCC1(CC)CC(=O)c2cc(-c3nnc(-c4cccnc4)s3)ccc2O1 [Compound 104]"
system = "human sphingosine-1-phosphate receptor 1 (S1P1) (Homo sapiens (Human))"
measurement_label = "Emax"
measured_value = "> 75%"

[[record]]
compound = "CCC1(CC)CC(=O)c2cc(-c3nc(-c4cnccc4OC)no3)ccc2O1 [Compound 303]"
system = "human sphingosine-1-phosphate receptor 1 (S1P1) (Homo sapiens (Human))"
measurement_label = "Emax"
measured_value = "> 75%"

[[record]]
compound = "COc1cccc2oc(-c3ccc4c(c3)nnn4C(C)C)nc12 [Compound 424]"
system = "human sphingosine-1-phosphate receptor 1 (S1P1) (Homo sapiens (Human))"
measurement_label = "Emax"
measured_value = "> 75%"


# input What value of Emax has been recorded for this entry: Brc1ccccc1-c1nc(-c2ccc3[nH]nnc3c2)no1 [Compound 97]
# output < 75%

# input Queued: CC(C)n1ccc2cc(-c3nc(-c4ccccc4Cl)no3)ccc21 [Compound 320]
# output > 75%

* * *

# system: human sphingosine-1-phosphate receptor 1 (S1P1) (Homo sapiens (Human), UniProt P21453)
# method-summary: Inhibition of cAMP production (HTRF cAMP HiRange), S1P1 CHO-K1 cells
# Assay type: cell-based
# condition-description: CHO-K1; efficacy (SPAN) normalized to fingolimod; read-out: hS1P1 cAMP SPAN
# Sequence (P21453 whole entry, looked up): as the sequence (P21453 whole entry, looked up) above
Emax reference

Use the examples below as a reference point.
[[record]]
smiles_entry = "C=CCNc1ccc(-c2nc(-c3ccc4c(c3)nnn4C(C)C)no2)cc1C#N"
measured_value = "> 75%"

[[record]]
smiles_entry = "CC(C)n1ncc2cc(-c3nc(-c4cccc5c4OCO5)no3)ccc21"
measured_value = "> 75%"

[[record]]
smiles_entry = "COc1cccc(F)c1-c1noc(-c2ccc3c(cnn3C(C)C)c2)n1"
measured_value = "> 75%"

[[record]]
smiles_entry = "CC(C)(O)Cn1nnc2cc(-c3nc(-c4cocn4)no3)ccc21"
measured_value = "< 75%"

[[record]]
smiles_entry = "CC(C)n1nnc2cc(C(=O)Nc3noc4ccccc34)ccc21"
measured_value = "> 75%"

[[record]]
smiles_entry = "CCC1(CC)CC(=O)c2cc(-c3nc(-c4cccnc4)ns3)ccc2O1"
measured_value = "> 75%"


API: the following record is the query input.
# input Quick check: Emax of `Cc1ccccc1-c1noc(-c2ccc3c(c2)nnn3CC(C)C)n1` ?
# output > 75%

* * *

Recorded hS1P1 cAMP pEC50, one value per entry.
# system: human sphingosine-1-phosphate receptor 1 (S1P1) (Homo sapiens (Human), UniProt P21453)
# method-summary: Inhibition of cAMP production (HTRF cAMP HiRange), S1P1 CHO-K1 cells
# Format: cell-based
# condition-description: inhibition of cAMP production, S1P1 CHO-K1 cells

# input Bench note: what hS1P1 cAMP pEC50 did COc1ccccc1-c1csc(-c2cnc3c(ccn3C(C)C)c2)n1 [Compound 401] show?
# output <6.5

# input Input CC(C)n1nnc2cc(-c3nc(-c4ccccc4Cl)no3)ccc21 [Compound 17]
# output >6.5

# input Queued: CC(C)n1ccc2cc(-c3nc(-c4cccc5c4OCCC5)no3)ccc21 [Compound 327]
# output <6.5

# input Param item: CC(C)Nc1ccc(-c2nc(-c3ccc4oc(=O)[nH]c4c3)no2)cc1C#N [Compound 422]
# output >6.5

# input Please do the same for Cc1ccsc1-c1nc(-c2ccc3c(c2)nnn3C(C)(C)CO)no1 [Compound 611] as well.
# output >6.5

# input Also check CC(C)n1ccc2cc(-c3nc(-c4ccccc4O)no3)ccc21 [Compound 323]
# output <6.5

* * *

# system: human sphingosine-1-phosphate receptor 2 (S1P2) (Homo sapiens (Human), UniProt O95136)
# Sequence (O95136 whole entry): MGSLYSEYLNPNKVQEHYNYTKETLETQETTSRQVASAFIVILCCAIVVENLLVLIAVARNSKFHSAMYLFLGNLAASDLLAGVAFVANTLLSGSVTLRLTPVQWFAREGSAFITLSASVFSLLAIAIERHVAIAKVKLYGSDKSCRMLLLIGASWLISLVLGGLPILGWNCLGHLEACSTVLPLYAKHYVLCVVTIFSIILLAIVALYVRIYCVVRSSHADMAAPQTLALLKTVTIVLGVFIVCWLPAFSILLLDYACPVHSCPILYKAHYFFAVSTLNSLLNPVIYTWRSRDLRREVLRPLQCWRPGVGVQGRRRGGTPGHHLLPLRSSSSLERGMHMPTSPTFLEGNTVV
# method-summary: Inositol monophosphate production (IP-one TB kit), S1P2 CHO-K1 cells
# Format: cell-based
# condition-description: inositol monophosphate accumulation, hS1P2
This section presents compounds with their documented hS1P2 IP-one pEC50 values.

Examples with their reported hS1P2 IP-one pEC50 follow.
[[record]]
compound = "CCC1(CC)CC(=O)c2cc(-c3nc(-c4cccnc4)no3)ccc2O1 [Compound 103]"
measurement_label = "hS1P2 IP-one pEC50"
measured_value = "<5.0"

[[record]]
compound = "COc1ccccc1-c1nc(-c2ccc3c(ccn3C(C)C)c2)no1 [Compound 398]"
measurement_label = "hS1P2 IP-one pEC50"
measured_value = "<5.0"

[[record]]
compound = "Cc1ccncc1-c1noc(-c2ccc3c(c2)nnn3C2CCC2)n1 [Compound 417]"
measurement_label = "hS1P2 IP-one pEC50"
measured_value = ">5.0"


# input Item under review: C=CCNc1ccc(-c2nc(-c3ccc4[nH]ncc4c3)no2)cc1C#N [Compound 141] . Reported hS1P2 IP-one pEC50?
# output <5.0

# input Now the same for CCC1(CC)CC(=O)c2cc(-c3nc(-c4ccnc(O)c4)no3)ccc2O1 [Compound 263]
# output <5.0

* * *

# system: human sphingosine-1-phosphate receptor 1 (S1P1) (Homo sapiens (Human))
# method-summary: β-Arrestin2 recruitment assay (PathHunter), S1P1 CHO-K1 cells
# Assay type: cell-based
# condition-description: CHO-K1; efficacy (SPAN) normalized to fingolimod; read-out: hS1P1 B-arrestin2 SPAN
Recorded Emax values for a group of molecules are listed next.

[[record]]
smiles_entry = "CC(C)n1ccc2cc(-c3nc(-c4cccc5c4OCO5)no3)ccc21"
system = "human sphingosine-1-phosphate receptor 1 (S1P1) (Homo sapiens (Human))"
measurement_label = "Emax"
measured_value = "> 75%"

[[record]]
smiles_entry = "C=CCNc1ccc(-c2nc(-c3ccc4c(c3)nnn4C(C)C)no2)cc1C#N"
system = "human sphingosine-1-phosphate receptor 1 (S1P1) (Homo sapiens (Human))"
measurement_label = "Emax"
measured_value = "> 75%"

[[record]]
smiles_entry = "COc1ccc(-c2noc(-c3ccc4c(c3)nnn4C3CCCCC3)n2)cc1C(F)(F)F"
system = "human sphingosine-1-phosphate receptor 1 (S1P1) (Homo sapiens (Human))"
measurement_label = "Emax"
measured_value = "< 75%"


Next molecule, please.
# input Please state recorded Emax (tested on human sphingosine-1-phosphate receptor 1 (S1P1) (Homo sapiens (Human))) of `Cc1ncccc1-c1nc(-c2ccc3c(c2)nnn3C(C)C)no1`
# output < 75%

* * *

# system: human sphingosine-1-phosphate receptor 1 (S1P1) (Homo sapiens (Human))
# method-summary: β-Arrestin2 recruitment assay (PathHunter), S1P1 CHO-K1 cells
# Assay type: cell-based
# condition-description: β-arrestin2 recruitment, S1P1 CHO-K1 cells
measurement-label: hS1P1 B-arrestin2 pEC50

Guide cases for hS1P1 B-arrestin2 pEC50, answers given:
[[record]]
compound = "CC(F)CNc1ccc(-c2nc(-c3ccc4c(c3)CCC(=O)N4)no2)cc1C#N (stereo not drawn)"
measurement_label = "hS1P1 B-arrestin2 pEC50"
measured_value = ">5"

[[record]]
compound = "Cc1ccc2oc(-c3ccc4c(c3)nnn4CC(C)C)nc2c1"
measurement_label = "hS1P1 B-arrestin2 pEC50"
measured_value = ">5"


# input Reported hS1P1 B-arrestin2 pEC50 for `COc1cccc(-c2cnc(-c3ccc4c(c3)nnn4C(C)C)s2)c1` : what is it?
# output <5

# input Lookup `CCC1(CC)CC(=O)c2cc(-c3nc(-c4cncc(NS(C)(=O)=O)c4)no3)ccc2O1`
# output >5

# input And what about the compound `CCc1ncc(-c2noc(-c3ccc4c(c3)nnn4C(C)C)n2)cn1` ?
# output <5

# input Note, next up: `COCC1(COC)CC(=O)c2cc(-c3nc(-c4ccncc4)no3)ccc2O1`
# output >5

# input Repeat with `N#Cc1cc(-c2nnc(-c3ccc4c(c3)CCC(=O)N4)o2)ccc1NCC1CC1`
# output >5

# input Another compound: `Cc1cn(C)nc1-c1noc(-c2ccc3c(c2)nnn3C(C)C)n1`
# output >5

# input // repeat for `Brc1ccccc1-c1noc(-c2ccc3c(c2)nnn3C2CC2)n1` and report
# output >5

# input Same thing, different compound: `Cc1cccc(-c2noc(-c3ccc4c(c3)nnn4C3CCCCC3)n2)c1`
# output <5

# input Input `CC(C)n1nnc2cc(-c3ncc(-c4ccccc4Br)s3)ccc21`
# output <5

# input Then what about the compound `CCC1(CC)CC(=O)c2cc(-c3nc(-c4ccc(C(=O)N(C)C)cc4)no3)ccc2O1` ?
# output <5

# input Also `CC(C)Nc1ccc(-c2nnc(-c3cccc4[nH]cnc34)o2)cc1C#N` ?
# output >5

# input Further, for `Cc1ccncc1-c1nc(-c2ccc3c(c2)nnn3CC(C)(C)CO)no1` ?
# output <5

Where these numbers come from: patent US11912693B2
